Values compiled from patent US7902373B2.

Molecular target: human recombinant H-PGDS (Homo sapiens, UniProt O60760)
Sequence (O60760 whole entry): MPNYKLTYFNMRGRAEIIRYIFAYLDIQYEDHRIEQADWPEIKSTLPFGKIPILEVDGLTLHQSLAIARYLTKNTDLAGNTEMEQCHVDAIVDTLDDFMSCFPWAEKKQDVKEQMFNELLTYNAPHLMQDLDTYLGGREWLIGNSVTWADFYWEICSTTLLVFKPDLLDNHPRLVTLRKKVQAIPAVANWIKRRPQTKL
Experiment: Fluorescence intensity h-PGDS TBA enzyme assay
Assay type: biochemical
Conditions: Examples up to 622 (and 3a, 3b)
measured-metric: pIC50
Answers are plain numbers, as −log10 of the molar value.

Go through the list and state pIC50 for each entry.
1. Cc1nc2ccccc2nc1CN1CCC(NC(=O)c2ccc(-c3cccc(F)c3)nc2)CC1
2. O=C(NC1CCN(CC(F)(F)F)CC1)c1ccc(-c2ccccc2)nc1
3. Cc1cn(CCN2CCC(NC(=O)c3ccc(-c4cccc(F)c4)nc3)CC2)c(=O)[nH]c1=O
4. COc1ccc(F)c(CN2CCC(NC(=O)c3ccc(-c4cccc(F)c4)nc3)CC2)c1

Solution:
8.41
9.69
9.43
9.21

Go through the list and state pIC50 for each entry.
1. CCc1cn2nc(N3C[C@H](NC(=O)c4ccc(-c5cccc(F)c5)nc4)[C@@H](O)C3)ccc2n1 (relative stereo)
2. CC(C)(C)OC(=O)N1CCC(NC(=O)c2ccc(-c3cccc(F)c3)nc2)CC1

Solution:
1: 7.28; 2: 8.42

Go through the list and state pIC50 for each entry.
1. COc1ccc(CN2CCC(NC(=O)c3ccc(-c4cccc(F)c4)nc3)CC2)c(Cl)c1OC
2. O=C(NC1CCN(CC2CC=CCC2)CC1)c1ccc(-c2cccc(F)c2)nc1 (centres unmarked)

Solution:
9.24
9.35

###

Target: human recombinant H-PGDS (Homo sapiens, UniProt O60760)
Experiment: Fluorescence intensity h-PGDS TBA enzyme assay
Format: biochemical
Conditions: Examples up to 622 (and 3a, 3b)
pIC50: −log10 of the molar value.
# if value of pIC50 reaches 9, tag condition met; if it stays below, tag condition not met

The examples below pair each entry with its known result.
{"columns": ["compound", "tested-on", "answer-label"],
 "data": [
  ["Cc1nc(C)c(CN2CCC(NC(=O)c3ccc(-c4cccc(F)c4)nc3)CC2)nc1C", "human recombinant H-PGDS (Homo sapiens, UniProt O60760)", "condition met"],
  ["CN1CCC(NC(=O)c2ccc(-c3cccc(F)c3)nc2)CC1", "human recombinant H-PGDS (Homo sapiens, UniProt O60760)", "condition not met"],
  ["COc1ccc(OC)c(CN2CCC(NC(=O)c3ccc(-c4cccc(F)c4)nc3)CC2)c1", "human recombinant H-PGDS (Homo sapiens, UniProt O60760)", "condition met"],
  ["Cc1cc(NC(=O)c2ccc(N3CCC(NC(=O)c4ccc(-c5cccc(F)c5)nc4)CC3)nn2)n(C)n1", "human recombinant H-PGDS (Homo sapiens, UniProt O60760)", "condition met"],
  ["CCOC(=O)N1CCC(NC(=O)c2ccc(-c3ccccc3)nc2)CC1", "human recombinant H-PGDS (Homo sapiens, UniProt O60760)", "condition met"]
]}

Exercise: Record Cc1nc(N2CCC(NC(=O)c3ccc(-c4cccc(F)c4)nc3)CC2)ccc1C#N ; criterion: pIC50 no lower than 9. Met?
Solution: condition not met

Exercise: And then Cn1ccc(-c2ccc(CN3CCC(NC(=O)c4ccc(-c5cccc(F)c5)nc4)CC3)cc2)n1 , what is it?
Solution: condition not met

Exercise: And then CCCn1nccc1CN1CCC(NC(=O)c2ccc(-c3cccc(F)c3)nc2)CC1 , what is it?
Solution: condition met

Exercise: And then O=C(NC1CCN(C2CCC(Oc3ccccc3)CC2)CC1)c1ccc(-c2cccc(F)c2)nc1 (stereo not drawn) , what is it?
Solution: condition met

Exercise: And then O=C(NC1CCN(c2ccc(C(=O)N3CCOCC3)cn2)CC1)c1ccc(-c2cccc(F)c2)nc1 [Example 3] , what is it?
Solution: condition met

Exercise: And then CNC(=O)N1CCC(NC(=O)c2ccc(-c3cccc(F)c3)nc2)CC1 , what is it?
Solution: condition not met

Exercise: And then CC(C)(C)C(=O)N1CCC(NC(=O)c2cnc(-c3cccc(F)c3)c(Cl)c2)CC1 , what is it?
Solution: condition not met

Exercise: And then O=C(NC1CCN(Cc2ccc(C(F)(F)F)nc2)CC1)c1ccc(-c2cccc(F)c2)nc1 , what is it?
Solution: condition not met

Exercise: And then Cc1nnc(N2CCC(NC(=O)c3ccc(-c4cccc(F)c4)nc3)CC2)c2ccccc12 , what is it?
Solution: condition met

Exercise: And then O=C(N[C@@H]1CN(c2ncc3ccc(F)cc3n2)C[C@H]1O)c1ccc(-c2cccc(F)c2)nc1 (relative stereo) , what is it?
Solution: condition not met

Exercise: And then O=C(NC1CN(c2cnc3ccccc3n2)C1)c1ccc(-c2cccc(F)c2)nc1 , what is it?
Solution: condition not met

Exercise: And then COc1ccc(CN2CCC(NC(=O)c3ccc(-c4cccc(F)c4)nc3)CC2)cc1C , what is it?
Solution: condition not met

###

Biological target: human recombinant H-PGDS (Homo sapiens, UniProt O60760)
Test: Fluorescence intensity h-PGDS TBA enzyme assay
Format: biochemical
Details: Examples up to 622 (and 3a, 3b)
Give measured IC50 for each item. Keep answers brief.
Report as: number unit

{"columns": ["compound", "IC50"],
 "data": [
  ["O=C(NC1CCN(Cc2n[nH]c3ccccc23)CC1)c1ccc(-c2cccc(F)c2)nc1 [Example 513]", "0.363 nM"],
  ["CS(=O)(=O)Nc1cccc(CN2CCC(NC(=O)c3ccc(-c4cccc(F)c4)nc3)CC2)c1 [Example 501]", "0.432 nM"],
  ["O=C(NC1CCN(Cc2cnc3ccccc3c2)CC1)c1ccc(-c2cccc(F)c2)nc1 [Example 246]", "1.97 nM"]
]}

# next compound below
Exercise: Any idea what IC50 was measured for O=C(NC1CCN(Cc2cnc(-c3ccccc3)s2)CC1)c1ccc(-c2cccc(F)c2)nc1 [Example 289] ?
Solution: 2.09 nM

###

Biological target: human recombinant H-PGDS (Homo sapiens, UniProt O60760)
Assay: Fluorescence intensity h-PGDS TBA enzyme assay
Type: biochemical
Conditions: Examples up to 622 (and 3a, 3b)
Give measured IC50 for each item. Keep answers brief.
One number for each entry, in nM.

Go through the list and state IC50 for each entry.
1. CCOc1cccc(-n2nnnc2N2CCC(NC(=O)c3ccc(-c4cccc(F)c4)nc3)CC2)c1
2. COc1ccccc1C(C)N1CCC(NC(=O)c2ccc(-c3cccc(F)c3)nc2)CC1 (stereo not drawn)
3. O=C(NC1CCN(Cc2ccc3c(c2)OCCO3)CC1)c1ccc(-c2cccc(F)c2)nc1

Solution:
2.15
2.71
2.19

###

Target: human recombinant H-PGDS (Homo sapiens)
Assay: Fluorescence intensity h-PGDS TBA enzyme assay
Type: biochemical
Conditions: Examples up to 622 (and 3a, 3b)
// boundary case: IC50 equal to 1 nM maps to False; strictly smaller maps to True

The examples below pair each entry with its known result.
{"columns": ["compound", "tested-on", "answer-label"],
 "data": [
  ["O=C(NC1CCN(Cc2coc3ccccc23)CC1)c1ccc(-c2cccc(F)c2)nc1 [Example 518]", "human recombinant H-PGDS (Homo sapiens)", "True"],
  ["Cn1nc(-c2ccccn2)nc1CN1CCC(NC(=O)c2ccc(-c3cccc(F)c3)nc2)CC1 [Example 478]", "human recombinant H-PGDS (Homo sapiens)", "False"],
  ["Cc1ccc(-n2nnnc2N2CCC(NC(=O)c3ccc(-c4cccc(F)c4)nc3)CC2)cc1 [Example 95]", "human recombinant H-PGDS (Homo sapiens)", "True"],
  ["O=C(NC1CCN(c2ccc(C(=O)N3CCSC3)cn2)CC1)c1ccc(-c2cccc(F)c2)nc1 [Example 573]", "human recombinant H-PGDS (Homo sapiens)", "False"],
  ["O=C(NC1CCN(c2ncnc3c2ncn3C2CCCCO2)CC1)c1ccc(-c2cccc(F)c2)nc1 (stereo not shown) [Example 147]", "human recombinant H-PGDS (Homo sapiens)", "True"]
]}

Then there is this compound:
Exercise: Bench note: check whether CCC(CO)n1cnc2c(N3CCC(NC(=O)c4ccc(-c5cccc(F)c5)nc4)CC3)ncnc21 (single isomer, unassigned) [Example 582] shows IC50 below 1 nM
Solution: False

###

Target: human recombinant H-PGDS (Homo sapiens)
Experiment: Fluorescence intensity h-PGDS TBA enzyme assay
Assay type: biochemical
Details: Examples up to 622 (and 3a, 3b)
measured-metric: pIC50
One number for each entry, as −log10 of the molar value.

{"columns": ["compound", "measured-metric", "meas-value"],
 "data": [
  ["O=C(NC1CCN(c2nnnn2-c2ccccc2F)CC1)c1ccc(-c2cccc(F)c2)nc1", "pIC50", 9.37],
  ["C[C@@H]1Oc2ccc(CN3CCC(NC(=O)c4ccc(-c5cccc(F)c5)nc4)CC3)cc2[C@H]1C(=O)O", "pIC50", 8.75],
  ["O=C(NC1CCN(Cc2c[nH]c(-c3ccccc3)n2)CC1)c1ccc(-c2cccc(F)c2)nc1", "pIC50", 8.63]
]}

Go through the list and state pIC50 for each entry.
1. CCOc1cc(CN2CCC(NC(=O)c3ccc(-c4cccc(F)c4)nc3)CC2)ccc1O
2. CC(C)(C)c1ncc2c(n1)CCC(CN1CCC(NC(=O)c3ccc(-c4cccc(F)c4)nc3)CC1)C2 (stereo not drawn)
3. COc1ccc(-c2c(CN3CCC(NC(=O)c4ccc(-c5cccc(F)c5)nc4)CC3)cnn2C)cc1

Solution:
8.65
8.79
8.79
